details: in n-propanol, 278.15 K
readoutKind: solubility (mole fraction)

INSERT INTO measurements (compound, readoutkind, measured) VALUES
  ('CN1CC(O)c2cc(N=NC(N)=O)c(O)cc21 (stereo unspecified)', 'solubility (mole fraction)', '1.75e-05');

###

conditions: in water, 293.15 K
readoutKind: solubility (mole fraction)

INSERT INTO measurements (compound, readoutkind, measured) VALUES
  ('CN1CC(O)c2cc(N=NC(N)=O)c(O)cc21 (stereo unspecified)', 'solubility (mole fraction)', '4.4e-05');

###

settings: in DMSO, 318.15 K
readoutKind: solubility (mole fraction)

INSERT INTO assay_data (molecule, measured) VALUES
  ('CN1CC(O)c2cc(N=NC(N)=O)c(O)cc21 (stereo unspecified)', 0.0174);

###

settings: in DMF, 283.15 K
readoutKind: solubility (mole fraction)

INSERT INTO assay_data (compound, measured) VALUES
  ('CN1CC(O)c2cc(N=NC(N)=O)c(O)cc21 (stereo unspecified)', 0.00115);

###

conditions: in DMF, 318.15 K
readoutKind: solubility (mole fraction)

INSERT INTO measurements (molecule, measured) VALUES
  ('CN1CC(O)c2cc(N=NC(N)=O)c(O)cc21 (stereo unspecified)', 0.00335);

###

conditions: in n-propanol, 313.15 K
readoutKind: solubility (mole fraction)

INSERT INTO assay_data (molecule, readoutkind, measured) VALUES
  ('CN1CC(O)c2cc(N=NC(N)=O)c(O)cc21 (stereo unspecified)', 'solubility (mole fraction)', '5.92e-05');

###

conditions: in DMF, 313.15 K
readoutKind: solubility (mole fraction)

INSERT INTO measurements (molecule, measured) VALUES
  ('CN1CC(O)c2cc(N=NC(N)=O)c(O)cc21 (stereo unspecified)', 0.00277);

###

conditions: in methanol, 313.15 K
readoutKind: solubility (mole fraction)

INSERT INTO results (compound, measured) VALUES
  ('CN1CC(O)c2cc(N=NC(N)=O)c(O)cc21 (stereo unspecified)', 0.000147);

###

conditions: in water, 278.15 K
readoutKind: solubility (mole fraction)

INSERT INTO measurements (molecule, measured) VALUES
  ('CN1CC(O)c2cc(N=NC(N)=O)c(O)cc21 (stereo unspecified)', '2.81e-05');

###

details: in DMF, 298.15 K
readoutKind: solubility (mole fraction)

INSERT INTO assay_data (molecule, measured) VALUES
  ('CN1CC(O)c2cc(N=NC(N)=O)c(O)cc21 (stereo unspecified)', 0.00177);

###

conditions: in methanol, 283.15 K
readoutKind: solubility (mole fraction)

INSERT INTO assay_data (molecule, readoutkind, measured) VALUES
  ('CN1CC(O)c2cc(N=NC(N)=O)c(O)cc21 (stereo unspecified)', 'solubility (mole fraction)', '4.38e-05');

###

settings: in ethanol, 288.15 K
readoutKind: solubility (mole fraction)

INSERT INTO assay_data (compound, measured) VALUES
  ('CN1CC(O)c2cc(N=NC(N)=O)c(O)cc21 (stereo unspecified)', '2.42e-05');

###

settings: in ethanol, 308.15 K
readoutKind: solubility (mole fraction)

INSERT INTO assay_data (molecule, readoutkind, measured) VALUES
  ('CN1CC(O)c2cc(N=NC(N)=O)c(O)cc21 (stereo unspecified)', 'solubility (mole fraction)', '5.24e-05');

###

conditions: in water, 313.15 K
readoutKind: solubility (mole fraction)

INSERT INTO results (molecule, measured) VALUES
  ('CN1CC(O)c2cc(N=NC(N)=O)c(O)cc21 (stereo unspecified)', '7.98e-05');

###

conditions: in DMSO, 303.15 K
readoutKind: solubility (mole fraction)

INSERT INTO assay_data (molecule, measured) VALUES
  ('CN1CC(O)c2cc(N=NC(N)=O)c(O)cc21 (stereo unspecified)', 0.0129);

###

conditions: in DMSO, 278.15 K
readoutKind: solubility (mole fraction)

INSERT INTO results (compound, readoutkind, measured) VALUES
  ('CN1CC(O)c2cc(N=NC(N)=O)c(O)cc21 (stereo unspecified)', 'solubility (mole fraction)', 0.00619);

###

settings: in water, 288.15 K
readoutKind: solubility (mole fraction)

INSERT INTO results (compound, measured) VALUES
  ('CN1CC(O)c2cc(N=NC(N)=O)c(O)cc21 (stereo unspecified)', '3.78e-05');

###

settings: in water, 303.15 K
readoutKind: solubility (mole fraction)

INSERT INTO results (molecule, measured) VALUES
  ('CN1CC(O)c2cc(N=NC(N)=O)c(O)cc21 (stereo unspecified)', '6.03e-05');

###

details: in n-propanol, 283.15 K
readoutKind: solubility (mole fraction)

INSERT INTO measurements (molecule, readoutkind, measured) VALUES
  ('CN1CC(O)c2cc(N=NC(N)=O)c(O)cc21 (stereo unspecified)', 'solubility (mole fraction)', '2.05e-05');

###

details: in methanol, 298.15 K
readoutKind: solubility (mole fraction)

INSERT INTO measurements (molecule, readoutkind, measured) VALUES
  ('CN1CC(O)c2cc(N=NC(N)=O)c(O)cc21 (stereo unspecified)', 'solubility (mole fraction)', '8.35e-05');

###

settings: in DMF, 278.15 K
readoutKind: solubility (mole fraction)

INSERT INTO results (compound, readoutkind, measured) VALUES
  ('CN1CC(O)c2cc(N=NC(N)=O)c(O)cc21 (stereo unspecified)', 'solubility (mole fraction)', 0.00095);

###

conditions: in methanol, 293.15 K
readoutKind: solubility (mole fraction)

INSERT INTO measurements (compound, readoutkind, measured) VALUES
  ('CN1CC(O)c2cc(N=NC(N)=O)c(O)cc21 (stereo unspecified)', 'solubility (mole fraction)', '6.89e-05');

###

conditions: in DMSO, 298.15 K
readoutKind: solubility (mole fraction)

INSERT INTO results (molecule, measured) VALUES
  ('CN1CC(O)c2cc(N=NC(N)=O)c(O)cc21 (stereo unspecified)', 0.0113);

###

details: in methanol, 318.15 K
readoutKind: solubility (mole fraction)

INSERT INTO assay_data (molecule, measured) VALUES
  ('CN1CC(O)c2cc(N=NC(N)=O)c(O)cc21 (stereo unspecified)', 0.000173);

###

conditions: in n-propanol, 298.15 K
readoutKind: solubility (mole fraction)

INSERT INTO measurements (compound, measured) VALUES
  ('CN1CC(O)c2cc(N=NC(N)=O)c(O)cc21 (stereo unspecified)', '3.18e-05');

###

settings: in methanol, 278.15 K
readoutKind: solubility (mole fraction)

INSERT INTO measurements (compound, readoutkind, measured) VALUES
  ('CN1CC(O)c2cc(N=NC(N)=O)c(O)cc21 (stereo unspecified)', 'solubility (mole fraction)', '3.56e-05');

###

conditions: in DMF, 308.15 K
readoutKind: solubility (mole fraction)

INSERT INTO assay_data (compound, measured) VALUES
  ('CN1CC(O)c2cc(N=NC(N)=O)c(O)cc21 (stereo unspecified)', 0.00231);

###

conditions: in ethanol, 303.15 K
readoutKind: solubility (mole fraction)

INSERT INTO assay_data (molecule, measured) VALUES
  ('CN1CC(O)c2cc(N=NC(N)=O)c(O)cc21 (stereo unspecified)', '4.29e-05');

###

settings: in methanol, 288.15 K
readoutKind: solubility (mole fraction)

INSERT INTO assay_data (compound, measured) VALUES
  ('CN1CC(O)c2cc(N=NC(N)=O)c(O)cc21 (stereo unspecified)', '5.31e-05');

###

settings: in DMSO, 293.15 K
readoutKind: solubility (mole fraction)

INSERT INTO results (compound, readoutkind, measured) VALUES
  ('CN1CC(O)c2cc(N=NC(N)=O)c(O)cc21 (stereo unspecified)', 'solubility (mole fraction)', 0.01);

###

conditions: in DMSO, 313.15 K
readoutKind: solubility (mole fraction)

INSERT INTO results (molecule, measured) VALUES
  ('CN1CC(O)c2cc(N=NC(N)=O)c(O)cc21 (stereo unspecified)', 0.0159);

###

conditions: in DMF, 288.15 K
readoutKind: solubility (mole fraction)

INSERT INTO measurements (compound, readoutkind, measured) VALUES
  ('CN1CC(O)c2cc(N=NC(N)=O)c(O)cc21 (stereo unspecified)', 'solubility (mole fraction)', 0.00129);

###

conditions: in water, 308.15 K
readoutKind: solubility (mole fraction)

INSERT INTO measurements (compound, measured) VALUES
  ('CN1CC(O)c2cc(N=NC(N)=O)c(O)cc21 (stereo unspecified)', '6.87e-05');

###

settings: in ethanol, 298.15 K
readoutKind: solubility (mole fraction)

INSERT INTO assay_data (compound, measured) VALUES
  ('CN1CC(O)c2cc(N=NC(N)=O)c(O)cc21 (stereo unspecified)', '3.67e-05');
